system: HOP-62 NSCLC; test: NCI-60 one-dose screen, 48 h (100 = growth as untreated, 0 = no growth, -100 = all killed); settings: 10 µM unless noted
The panel holds about 83,000 compounds, 20% with a hit somewhere; the sample as a whole holds those more often.
measurement label: growth (%)
Write the number in % without appending the unit.

Answered examples (5):
Give recorded growth. Cc1ccc(NC2=CC(=O)C(=O)c3ccccc32)c(C)c1
27.3

Give recorded growth. CSc1nc2c(c(=O)n1C)N=C1c3ccccc3C(=O)C1C(c1ccccc1)N2 (stereo not given)
76.9

Give recorded growth. O=C(c1ccccc1)N(C(=S)NCCc1ccc(Cl)cc1)c1ccc(Cl)cc1
91.3

Give recorded growth. CN1CCN(Cc2ccc(NC(=O)c3cncc(C#Cc4nc(N)nc5[nH]ncc45)c3)cc2C(F)(F)F)CC1
122

Give recorded growth. COc1ccc(/C=C/C(=O)c2c(C)nc3ccccc3c2/C=C/c2ccccc2)cc1O
88.6

Next:
Give recorded growth. O=c1oc2ccc(Br)cc2c(=O)n1-c1ccc(F)cc1F
6.8

Give recorded growth. COc1cccc(C(=O)NC(c2ccc(C)cc2)c2cc(Cl)c3cccnc3c2O)c1 (stereo not given)
9.9

Give recorded growth. O=S(=O)(c1ccccc1)n1cc2c(c1-c1ccccc1)CCc1sc(Nc3ccccc3)nc1-2
112

Give recorded growth. Cn1cc(-c2ccc3ncc(-c4ccc(CC(=O)Nc5cc(C(C)(C)C)no5)cc4)nc3c2)cn1
42.5

Give recorded growth. COC(=O)c1cc2c(n1Cc1ccccc1)-c1oncc1CCC2
72.9

----------
test system: SN12C renal; experiment: NCI-60 one-dose screen, 48 h (100 = growth as untreated, 0 = no growth, -100 = all killed); settings: 10 µM unless noted
Compounds without any hit were thinned out: in the full panel of roughly 83,000, 20% have a hit.
Below, each of the compounds is paired with its reported growth value.
Write the number in % without appending the unit.

Answered examples (5):
Give recorded growth. COc1ccc(-c2nc(-c3ccccc3)c(-c3ccccc3)[nH]2)cc1OC1CCCCC1
81.6

Give recorded growth. COc1cccc(C(=O)Cn2cc(/C=C(\C#N)S(=O)(=O)c3ccccc3)c3ccccc32)c1
83.7

Give recorded growth. Cn1c(C(=O)c2cccc3ccccc23)nc2ccccc21
11.8

Give recorded growth. Clc1ccc(Nc2nnc(-c3ccc4c(c3)OCO4)o2)cc1
96.6

Give recorded growth. O=c1c2cc(F)ccc2sc2c(NCCCNCCO)nc3ccc(Cl)cc3c12
67.4

Next:
Give recorded growth. COc1cc(C2CC(c3ccc(Nc4nc(NCCO)nc(N5CCOCC5)n4)cc3)=NN2c2cc(Cl)cc(Cl)c2)cc(OC)c1OC (stereo not given)
65.5

Give recorded growth. O=S1(=O)CCN(Cc2ccccc2)CC1
101

Give recorded growth. CCCCCCc1cc2cc(-c3nc4ccccc4[nH]3)c(=Nc3ccccc3C)oc2cc1O
45.8

Give recorded growth. CCCCCCC(O)(c1ccc(F)cc1)C(CN1CCOCC1)c1ccccc1 (stereo not given)
35.3

Give recorded growth. Cc1ccc(N=NC2C(=O)N(c3ccc(Cl)cc3)N(c3ccc(Cl)cc3)C2=O)cc1
96.4

----------
Tested on: NCI-H322M lung
Test: NCI-60 one-dose screen, 48 h (100 = growth as untreated, 0 = no growth, -100 = all killed)
Details: 10 µM unless noted
Procedure: Growth inhibition of the NCI-H322M human Non-Small Cell Lung tumor cell line is measured as a screen for anti-cancer activity. Cells are grown in 96 well plates and exposed to the test compound for 48 hours. Compounds are tested at a single concentration, which is 10^-5 M for most compounds. The reported endpoint is percent growth (GI% or GIPRCNT), where numbers from 0 - 100% represent growth inhibition, and numbers from -100% - 0 represent cell death. […]
The panel holds about 83,000 compounds, 20% with a hit somewhere; the sample as a whole holds those more often.
Assign labels as follows, please: Condition met for growth below 90%; Condition not met for growth equal to or exceeding 90%.

Problem: For the molecule COc1ccc(-c2nocc2-c2cccs2)cc1 , is growth under 90%?
Condition not met

Problem: For the molecule Cc1nc(Nc2ccccn2)sc1C(=O)/C=C/c1ccc(Cl)cc1 , is growth under 90%?
Condition met

Problem: For the molecule c1ccc2c(c1)oc1cc3sccc3nc12 , is growth under 90%?
Condition not met

Next:
Problem: For the molecule O=c1[nH]nnc2c1ncn2C1OC(CO)C(O)C1O (stereo unspecified) , is growth under 90%?
Condition met

----------
tested on: NCI/ADR-RES ovarian; test: NCI-60 one-dose screen, 48 h (100 = growth as untreated, 0 = no growth, -100 = all killed); conditions: 10 µM unless noted
The panel holds about 83,000 compounds, 20% with a hit somewhere; the sample as a whole holds those more often.
Below, each of the molecules is paired with its reported growth value.
Write the number in % without appending the unit.

Give recorded growth. CCOC(=O)c1cnc2ccc(Cl)cc2c1NCCCN(C)C
7.93

Give recorded growth. O=C(NC1CCN(Cc2ccccc2)CC1)c1cc(C(=O)NC2CCN(Cc3ccccc3)CC2)cc(C(=O)NC2CCN(Cc3ccccc3)CC2)c1
82.1

Give recorded growth. CN(CCc1ccccc1)C(=S)N(C(=O)c1ccc([N+](=O)[O-])cc1)c1ccc(Cl)cc1
98.4

Give recorded growth. COc1cccc(C2=NN3C(C2)c2ccccc2OC3c2ccc(/C=C3\SC(=O)NC3=O)cc2)c1 (centres undefined)
111

Give recorded growth. O=C(Nc1ccc(N2CCNCC2)cc1)c1[nH]ncc1Nc1cc(C2CC2)ncn1
102

Give recorded growth. O=C(COc1cc(O)c2c(=O)cc(-c3ccccc3)oc2c1)Nc1ccccc1C(F)(F)F
51.2

Next:
Give recorded growth. O=C(CN1C=NC2C(N3CCOCC3)=NC=NC21)c1cccc2ccccc12 (centres undefined)
104

Give recorded growth. COc1cc(C=C2C(=O)N(C)C(=O)N(C)C2=O)cc(CN2CCCCC2)c1O
105

Give recorded growth. COc1ccc(C2=Nn3c(NN)nnc3SC2)cc1
102

----------
system: NCI-H322M lung; experiment: NCI-60 one-dose screen, 48 h (100 = growth as untreated, 0 = no growth, -100 = all killed); settings: 10 µM unless noted
This is part of a sample that, as a whole, favours compounds with a hit. Of some 83,000 tested, about 20% had one in any assay.
measurement label: growth (%)
Write the number in % without appending the unit.

Answered examples (4):
Give recorded growth. COc1cccc2c(=O)c3c(sc12)c(NCCCNCCO)nc1ccccc13
53.4

Give recorded growth. Nc1nc(-c2ccccc2Br)nn1-c1nc2ccccc2s1
105

Give recorded growth. O=c1c2cc(F)ccc2sc2c(NCCN3CCCC3)nc3ccccc3c12
69

Give recorded growth. COc1ccc(-c2nnc(COc3ccc(C(=O)/C=C/c4ccco4)cc3)o2)cc1
86.6

Next:
Give recorded growth. COc1c(B(O)O)cccc1-c1nc2ccc3[nH]ncc3c2c2c1C1CCC2C1 (stereo not given)
84.2

Give recorded growth. O=Cc1c(OCc2cnnn2CC(=O)Nc2ccc(Br)cc2)ccc2ccccc12
96.1

----------
test system: A549/ATCC NSCLC; assay: NCI-60 one-dose screen, 48 h (100 = growth as untreated, 0 = no growth, -100 = all killed); settings: 10 µM unless noted
Compounds without any hit were thinned out: in the full panel of roughly 83,000, 20% have a hit.
Kindly return yes (1) if reported growth is no lower than 90%; return no (0) if it is lower.

Please indicate if the recorded growth for O=C(Cn1cc(COc2ncnc3c2cnn3-c2ccccc2)nn1)Nc1ccccn1 meets or exceeds 90%.
yes (1)

Please indicate if the recorded growth for COc1cc(/C=C2\Oc3cc(OCCCN4CCCC4)ccc3C2=O)cc(OC)c1 meets or exceeds 90%.
no (0)

----------
system: CCRF-CEM leukemia; test: NCI-60 one-dose screen, 48 h (100 = growth as untreated, 0 = no growth, -100 = all killed); details: 10 µM unless noted
Compounds without any hit were thinned out: in the full panel of roughly 83,000, 20% have a hit.
measurement label: growth (%)
Write the number in % without appending the unit.

Give recorded growth. COc1ccc(/C=C/C(=O)c2ccc(Nc3nc(NCCO)nc(Nc4ccc(Cl)cc4)n3)cc2)cc1
48.8

Give recorded growth. COc1cccc2cc(N(C)c3nc(C)nc4ccsc34)ccc12
4.65

Give recorded growth. COc1ccc(Br)c(/C=C2\SC(=Nc3ccc(O)cc3)NC2=O)c1
75

Give recorded growth. O=C(Nc1ccc(N2CCNCC2)cn1)c1[nH]ncc1Nc1ncnc2sc3c(c12)CCC3
-7.26

Give recorded growth. Cc1ccc(NC2=CC(=O)C(=O)c3ccccc32)c(C)c1
43.7

Give recorded growth. O=C(O)c1cn(C2CC2)c2cc(N3CCN(C(=O)C[n+]4ccccc4)CC3)c(F)cc2c1=O
97.4

Give recorded growth. COC(=O)/C(CCC=C(C)C)=C1\[C@@H](OC(C)=O)C[C@@]2(C)[C@H]1CC(=O)[C@H]1[C@@]3(C)CC[C@H](NCc4ccccc4)[C@@H](C)[C@@H]3CC[C@@]12C
76.4

Give recorded growth. Nc1n[nH]c2ccc([C@@H]3Nc4ccc5[nH]ncc5c4[C@H]4[C@H]5CCC(C5)[C@H]43)cc12
17

Give recorded growth. O=C(Nc1ccc(N2CCNCC2)cc1)c1[nH]ncc1Nc1cc(C2CC2)ncn1
30

Give recorded growth. O=C1c2ccc3c4c(ccc(c24)C(=O)N1CCCCO)C(=O)N(CCCCO)C3=O
6.38

Give recorded growth. O=C(N=Nc1c(O)[nH]c2ccccc12)c1oc2ccccc2c1CN1CCN(c2ccccc2)CC1
19.7

Give recorded growth. COc1ccc(Nc2cc(C)nc(NCc3ccccc3)n2)cc1
-3.8

Give recorded growth. COc1ccc(-c2nsc3c2NC(=O)CC3c2cccc(OC)c2)cc1 (centres undefined)
14.2

Give recorded growth. O=C(Nc1ccc(Cl)cc1)N1CCN(c2ccc3nncn3n2)CC1
-9.45

Give recorded growth. CN1CCN(Cc2ccc(C(=O)Nc3cncc(C#Cc4cnc5cccnn45)c3)cc2C(F)(F)F)CC1
32.6

Give recorded growth. O=C(/C=C/c1cccc(Cl)c1)OCc1ccc2cc1OCC#C/C=C\C#CCO2
84

Give recorded growth. Cn1c2c(c(=O)[nH]c1=O)NC1=C(C(=O)c3ccccc31)C1(C=C(O)c3ccccc31)N2 (centres undefined)
107

Give recorded growth. COc1ccc(/C=C/C(=O)c2c(C)nc3ccccc3c2/C=C/c2ccccc2)cc1O
32.2

Give recorded growth. COc1ccccc1C(=O)/C=C/c1ccccc1
46.3

All figures here come from PubChem BioAssay (NCI).
